Tested on: EKVX NSCLC
Assay: NCI-60 one-dose screen, 48 h (100 = growth as untreated, 0 = no growth, -100 = all killed)
Settings: 10 µM unless noted
This is part of a sample that, as a whole, favours compounds with a hit. Of some 83,000 tested, about 20% had one in any assay.
Readout name: growth (%)
Express the result in % but write the number alone.

In the examples that follow, each entry is paired with its recorded growth.
> print(dat)
                                        smi  readout.name  recorded.value
1           c1ccc2c(Nc3cccc4ccccc34)cccc2c1        growth            78.1
2       CSc1nc(NCCO)c(C#N)c(-c2cccc(N)c2)n1        growth            81.4
3  Cc1nn(-c2ccccc2)c2nc(C)n(-c3ccc(Br)cc3)c(=O)c12        growth            32.1

Kindly note: EKVX NSCLC, COc1cc(NCCCCN=C(N)NC(N)=NC(C)C)c2ncccc2c1 , growth value reported: 68

Kindly note: EKVX NSCLC, COC(=S)SCN(CSC(=S)OC)c1ccc(Cl)cc1 , growth value reported: 70.3

* * *

Test system: NCI-H322M lung
Experiment: NCI-60 one-dose screen, 48 h (100 = growth as untreated, 0 = no growth, -100 = all killed)
Details: 10 µM unless noted
This is part of a sample that, as a whole, favours compounds with a hit. Of some 83,000 tested, about 20% had one in any assay.
For each record, check the reported growth: if it is below 80% write 1, else write 0.

QUERY: Quick check: growth of CN1CCCCC1CCN1c2ccccc2Sc2ccc(Br)cc21 (stereo not drawn) under 80%?
RESULT: 1

QUERY: Quick check: growth of CNC(=O)c1cc(Oc2ccc3nc(NC(=O)Nc4ccc(CN5CCOCC5)c(C(F)(F)F)c4)sc3c2)ccn1 under 80%?
RESULT: 1

QUERY: Quick check: growth of O=C1C[C@H](Sc2nc(-c3ccc(F)cc3)cc(C(F)(F)F)n2)[C@H]2CO[C@@H]1O2 under 80%?
RESULT: 0

QUERY: Quick check: growth of O=[N+]([O-])c1c(F)cccc1Nc1cccc(F)c1 under 80%?
RESULT: 0

QUERY: Quick check: growth of c1ccc(CSc2ncnc3nc[nH]c23)nc1 under 80%?
RESULT: 0

QUERY: Quick check: growth of COc1ccccc1/C=C(/C(=O)c1ccccc1)c1ccccc1 under 80%?
RESULT: 0

QUERY: Quick check: growth of OC(c1cccc(C(F)(F)F)c1)c1cnccc1NC1CCCCCC1 (stereo not drawn) under 80%?
RESULT: 1

QUERY: Quick check: growth of CCOC(=O)C(CC)n1c(=O)c2cc(OC)c(OC)cc2c2cnc3[nH]ccc3c21 (stereo not drawn) under 80%?
RESULT: 1

QUERY: Quick check: growth of CN1C2CCC1/C(=C\c1ccc(Cl)cc1)C1=C2[C@@H](c2ccc(Cl)cc2)C(C#N)=C(N)O1 (stereo partly drawn) under 80%?
RESULT: 0

QUERY: Quick check: growth of Cc1nc2nc(N)nc(N)c2nc1C under 80%?
RESULT: 0

QUERY: Quick check: growth of CCN(C(=O)CN1CCN(c2cc3c(cc2F)c(=O)c(C(=O)O)cn3CC)CC1)c1nc(-c2ccccc2)cs1 under 80%?
RESULT: 1

QUERY: Quick check: growth of COc1ccc(/C=C/C(=O)c2ccc(NC(=O)c3cc4cc5ccccc5nc4s3)cc2)cc1OC under 80%?
RESULT: 0

QUERY: Quick check: growth of COc1ccc(/C(=C/c2ccc3ccccc3c2)c2nn[nH]n2)cc1OC under 80%?
RESULT: 1
